# System: Staphylococcus aureus KCTC 1621
measurement name: MIC (µM)
Entry rule: numbers only, all in µM.

[in] Reported MIC, molecule CC(C)C[C@H](NC(=O)[C@H](CO)NC(=O)[C@H](CC(C)C)NC(=O)[C@H](CS)NC(=O)[C@H](CC(N)=O)NC(=O)[C@H](C)NC(=O)[C@H](C)N)C(=O)NCC(=O)N[C@@H](CCCCN)C(=O)N[C@@H](C)C(N)=O [AANCLSLGKA] : ____
[out] 30

---

Assay system Staphylococcus aureus Newman; read-out recorded as MIC.

# annotated cases, reported MIC shown
CC(C)C[C@H](NC(=O)CNC(=O)[C@H](CCC(N)=O)NC(=O)[C@H](Cc1cnc[nH]1)NC(=O)[C@@H](N)CCCCN)C(=O)N1CCC[C@H]1C(=O)N[C@@H](CCC(N)=O)C(=O)N[C@@H](CCC(=O)O)C(=O)O [KHQGLPQE]: ≥ 1250 µM
CC(C)C[C@H](NC(=O)[C@H](C)NC(=O)[C@H](CC(N)=O)NC(=O)[C@H](CCC(=O)O)NC(=O)[C@H](CC(N)=O)NC(=O)[C@H](CC(C)C)NC(=O)[C@@H](N)C(C)C)C(=O)N[C@@H](CCCN=C(N)N)C(=O)O [VLNENALR]: ≥ 625 µM

As a next step, examine the compound that follows.
[in] Reported MIC, compound CC[C@H](C)[C@H](NC(=O)CNC(=O)[C@H](CO)NC(=O)[C@@H](NC(=O)[C@H](CC(C)C)NC(=O)[C@H](CCCN=C(N)N)NC(=O)CNC(=O)[C@@H](NC(=O)[C@@H](NC(=O)[C@@H]1CCCN1C(=O)[C@H](CC(C)C)NC(=O)[C@@H](N)Cc1ccccc1)[C@@H](C)CC)C(C)C)[C@@H](C)CC)C(=O)N[C@@H](CC(C)C)C(N)=O [FLPIVGRLISGIL] : ____
[out] 12.5 µM

---

Assay system Escherichia coli ATCC 25922; read-out recorded as MIC.
Entry rule: numbers only, all in µM.

# annotated cases, reported MIC shown
CC(C)[C@H](NC(=O)[C@H](Cc1ccc(O)cc1)NC(=O)[C@H](CO)NC(=O)[C@H](CCCCN)NC(=O)[C@@H](N)Cc1c[nH]c2ccccc12)C(=O)N[C@@H](CCCN=C(N)N)C(=O)N[C@@H](CCCN=C(N)N)C(=O)N[C@@H](Cc1c[nH]c2ccccc12)C(=O)N[C@@H](CCCN=C(N)N)C(=O)N[C@@H](CO)C(N)=O [WKSYVRRWRS]: 64
CC(C)[C@H](NC(=O)[C@H](Cc1ccc(O)cc1)NC(=O)[C@H](CO)NC(=O)[C@H](CCCCN)NC(=O)[C@@H](N)Cc1c[nH]c2ccccc12)C(=O)N[C@@H](CCCN=C(N)N)C(=O)N[C@@H](CCCN=C(N)N)C(=O)N[C@@H](Cc1c[nH]c2ccccc12)C(=O)N[C@@H](CCCN=C(N)N)C(=O)N[C@@H](CO)C(=O)N[C@@H](CCCN=C(N)N)C(N)=O [WKSYVRRWRSR]: 16
CSCC[C@H](NC(=O)[C@H](CCCN=C(N)N)NC(=O)[C@@H](N)Cc1ccc(O)cc1)C(=O)N[C@@H](Cc1c[nH]c2ccccc12)C(=O)N[C@@H](CCCN=C(N)N)C(=O)N[C@@H](Cc1c[nH]c2ccccc12)C(=O)N[C@@H](CCCN=C(N)N)C(=O)N[C@@H](Cc1c[nH]c2ccccc12)C(=O)N[C@@H](CCCN=C(N)N)C(=O)N[C@@H](Cc1c[nH]c2ccccc12)C(=O)N[C@@H](CCCN=C(N)N)C(N)=O [YRMWRWRWRWR]: 4.08

[in] Reported MIC, molecule NC(=O)[C@H](CCCN=C(N)N)NC(=O)[C@H](CS)NC(=O)[C@H](Cc1ccc(O)cc1)NC(=O)[C@H](Cc1c[nH]c2ccccc12)NC(=O)[C@H](CCCN=C(N)N)NC(=O)[C@@H](N)Cc1c[nH]c2ccccc12 [WRWYCR] : ____
[out] 17

[in] Same question, CC[C@H](C)[C@H](NC(=O)[C@H](CC(C)C)NC(=O)[C@H](CCCN=C(N)N)NC(=O)[C@H](Cc1c[nH]c2ccccc12)NC(=O)[C@@H]1CCCN1C(=O)[C@H](Cc1c[nH]c2ccccc12)NC(=O)[C@H](Cc1c[nH]c2ccccc12)NC(=O)[C@@H]1CCCN1C(=O)[C@H](Cc1c[nH]c2ccccc12)NC(=O)[C@H](CCCN=C(N)N)NC(=O)[C@H](CCCN=C(N)N)NC(=O)[C@@H](N)CCCCN)C(N)=O [KRRWPWWPWRLI] this time
[out] 4.49

---

# Tested on: Staphylococcus aureus ATCC 25923
Collected MIC values appear next to each entry.

# annotated cases, reported MIC shown
NC(=O)[C@H](Cc1c[nH]c2ccccc12)NC(=O)[C@H](Cc1c[nH]c2ccccc12)NC(=O)[C@H](CCCN=C(N)N)NC(=O)[C@H](CCCN=C(N)N)NC(=O)[C@H](Cc1c[nH]c2ccccc12)NC(=O)[C@H](Cc1c[nH]c2ccccc12)NC(=O)[C@H](CCCN=C(N)N)NC(=O)[C@H](Cc1c[nH]c2ccccc12)NC(=O)[C@H](Cc1c[nH]c2ccccc12)NC(=O)[C@@H](N)CCCN=C(N)N [RWWRWWRRWW]: > 51.7 µM
CC[C@H](C)[C@H](NC(=O)[C@H](CCCN=C(N)N)NC(=O)[C@H](CCCCN)NC(=O)[C@H](CC(C)C)NC(=O)[C@H](CC(C)C)NC(=O)CN)C(=O)N[C@@H](CCCCN)C(=O)N[C@H](C(=O)N[C@@H](CC(C)C)C(N)=O)[C@@H](C)O [GLLKRIKTL]: > 41.3 µM

[in] Reported MIC, compound CC(C)C[C@H](NC(=O)[C@H](CC(C)C)NC(=O)[C@@H](NC(=O)[C@@H](N)CCCCN)[C@@H](C)O)C(=O)N[C@@H](CCCCN)C(=O)N[C@@H](CCCCN)C(=O)N[C@H](C(=O)N[C@@H](CC(C)C)C(=O)N[C@@H](CCCCN)C(=O)N[C@@H](C)C(=O)N[C@@H](C)C(=O)N[C@@H](C)C(N)=O)C(C)C [KTLLKKVLKAAA] : ____
[out] > 50 µM

[in] Same question, CC(C)C[C@H](NC(=O)[C@@H](N)Cc1ccccc1)C(=O)N[C@@H](CCCCN)C(=O)N[C@@H](CCCCN)C(=O)N[C@@H](C)C(=O)N[C@@H](CCCCN)C(=O)N[C@@H](CCCCN)C(=O)N[C@@H](Cc1ccccc1)C(=O)NCC(=O)N[C@@H](CCCCN)C(=O)N[C@@H](C)C(=O)N[C@@H](Cc1ccccc1)C(N)=O [FLKKAKKFGKAF] this time
[out] > 362 µM

---

Assay system Escherichia coli ATCC 25922; read-out recorded as MIC.
Entry rule: numbers only, all in µM.

# annotated cases, reported MIC shown
CC(C)[C@H](NC(=O)[C@H](C)NC(=O)[C@H](CCCN=C(N)N)NC(=O)[C@H](CCCN=C(N)N)NC(=O)[C@H](Cc1c[nH]c2ccccc12)NC(=O)[C@H](Cc1c[nH]c2ccccc12)NC(=O)CN)C(=O)N[C@@H](C)C(=O)N[C@@H](CCCCN)C(=O)N[C@H](C(=O)N[C@@H](CCCN=C(N)N)C(=O)N[C@@H](CCCCN)C(N)=O)C(C)C: 3.1
CC[C@H](C)[C@H](NC(=O)[C@@H](N)CCCCN)C(=O)N[C@@H](Cc1c[nH]c2ccccc12)C(=O)N[C@@H](Cc1ccccc1)C(=O)N[C@@H](CCC(N)=O)C(=O)N[C@@H](CC(N)=O)C(=O)N[C@@H](CCCCN)C(=O)N[C@@H](CCCCN)C(=O)N[C@@H](CCSC)C(=O)N[C@@H](CCCCN)C(=O)N[C@@H](Cc1c[nH]c2ccccc12)C(=O)N[C@@H](CCCCN)C(=O)N[C@@H](CCCCN)C(N)=O: 256

As a next step, examine the compound that follows.
[in] Reported MIC, compound `CC[C@H](C)[C@H](NC(=O)[C@H](CC(C)C)NC(=O)[C@@H]1CCCN1C(=O)[C@H](CC(C)C)NC(=O)[C@@H](N)Cc1ccccc1)C(=O)NCC(=O)N[C@@H](CCCCN)C(=O)N[C@H](C(=O)N[C@@H](CC(C)C)C(=O)NCC(=O)N[C@H](C(=O)N[C@H](C(=O)N[C@@H](CC(C)C)C(N)=O)[C@@H](C)CC)[C@@H](C)O)[C@@H](C)CC` : ____
[out] 140

---

Assay system Escherichia coli ATCC 25922; read-out recorded as MIC.

# annotated cases, reported MIC shown
CC[C@H](C)[C@H](N)C(=O)N[C@@H](CC(C)C)C(=O)NCC(=O)N[C@@H](C)C(=O)N[C@H](C(=O)N[C@@H](Cc1c[nH]c2ccccc12)C(=O)N[C@@H](CC(N)=O)C(=O)NCC(=O)N[C@H](C(=O)N[C@@H](CCCCN)C(=O)N[C@@H](CO)C(=O)N[C@@H](CC(C)C)C(=O)N[C@@H](Cc1ccccc1)C(N)=O)C(C)C)C(C)C: > 71.2 µM
CC(C)C[C@H](NC(=O)[C@H](CC(C)C)NC(=O)[C@H](CCCCN)NC(=O)CNC(=O)[C@H](CC(C)C)NC(=O)[C@H](CC(C)C)NC(=O)[C@H](CO)NC(=O)[C@H](CC(C)C)NC(=O)[C@H](CC(C)C)NC(=O)[C@H](CC(C)C)NC(=O)[C@H](CO)NC(=O)[C@H](CC(C)C)NC(=O)CN)C(N)=O: > 25 µM
CC[C@H](C)[C@H](NC(=O)[C@H](C)NC(=O)[C@H](CCCCN)NC(=O)[C@H](Cc1ccc(O)cc1)NC(=O)[C@@H](N)CC(C)C)C(=O)N[C@@H](CCCN=C(N)N)C(=O)N[C@@H](CCCN=C(N)N)C(=O)N[C@@H](CCCCN)C(N)=O: > 128 µM

[in] Reported MIC, molecule `CC[C@H](C)[C@H](NC(=O)[C@H](CCCN=C(N)N)NC(=O)[C@H](CCCCN)NC(=O)[C@H](CC(C)C)NC(=O)[C@H](CC(C)C)NC(=O)CN)C(=O)N[C@@H](CCCCN)C(=O)N[C@H](C(=O)N[C@@H](CC(C)C)C(N)=O)[C@@H](C)O` : ____
[out] > 41.3 µM
